assay: Binding affinity to 1GGG sequence of human telomeric DNA assessed as intramolecular folding leading to G-quadruplex formation at 25 degC after 30 mins by electrophoretic mobility shift assay
Measure name: pEC50
# pEC50 is unitless: minus log10 of the molar concentration; print number only

# count of solved cases: 3
[[record]]
compound_smiles = "CN(C)CCN1C(=O)c2ccc3c4ccc5c6c(ccc(c7ccc(c2c37)C1=O)c64)C(=O)N(CCN(C)C)C5=O"
measured_result = 5.06

[[record]]
compound_smiles = "C[N+](C)(C)CCN1C(=O)c2ccc3c4ccc5c6c(ccc(c7ccc(c2c37)C1=O)c64)C(=O)N(CC[N+](C)(C)C)C5=O"
measured_result = 4.97

[[record]]
compound_smiles = "c1cc2c3ccc4c5c(ccc(c6ccc7c(c1CN(CCN1CCCCC1)C7)c26)c53)CN(CCN1CCCCC1)C4"
measured_result = 4.60


From here, focus on the item given below.
Ask: Any idea what its pEC50 is? The compound is O=C1c2ccc3c4ccc5c6c(ccc(c7ccc(c2c37)C(=O)N1CCNCCO)c64)C(=O)N(CCNCCO)C5=O
Result: 4.96
